# PROTOCOL_TEXT: self-splicing fitness, log relative to wild type (ln ratio); higher = more splicing; Tetrahymena group I intron in knt gene, E. coli kanamycin selection, DiMSum; sequences stand for … in CUCUCU…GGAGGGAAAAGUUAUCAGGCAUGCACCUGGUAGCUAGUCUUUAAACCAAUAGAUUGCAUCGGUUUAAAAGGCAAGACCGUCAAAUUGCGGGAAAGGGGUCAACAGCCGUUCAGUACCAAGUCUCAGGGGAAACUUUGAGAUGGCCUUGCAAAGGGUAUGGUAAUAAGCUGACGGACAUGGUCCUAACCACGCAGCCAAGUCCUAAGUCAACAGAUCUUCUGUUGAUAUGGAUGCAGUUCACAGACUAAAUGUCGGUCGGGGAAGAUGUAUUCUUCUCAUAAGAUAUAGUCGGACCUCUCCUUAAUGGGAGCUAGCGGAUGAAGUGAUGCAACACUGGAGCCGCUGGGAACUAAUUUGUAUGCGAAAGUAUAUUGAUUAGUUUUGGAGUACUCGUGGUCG;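 note: selection with 25 µg/mL kanamycin versus none on LB agar overnight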
# TEST_PARAMETERS: 30 °C
In this section we review reported self-splicing fitness (ln) values for a set of sequences.
The answer should be a number; do not append a unit.

Worked set:
ACCCAGCAAUAUUACGUUUC -2.36
CUCGAGCAAUAUUACGGGCU -3.17
UUGCAGCAAUAUUACGUAUC -3.83
CAUUAGCAAUAUUACGCCCG 0.404
AAUUAGCAAUAUUACGGUAU -1.29

Ask: What value of self-splicing fitness (ln) has been reported for the following sequence? CAUUAGCAAUAUUACGGUCU
Reply: -3.48

Ask: Also need CAACAGCAAUAUUACGCGUA , thanks.
Reply: -1.55

Ask: Also need UGAAAGCAAUAUUACGCCCU , thanks.
Reply: -0.195

Ask: Also need UAUAAGCAAUAUUACGAAAU , thanks.
Reply: -3.45

Ask: Also need AGCCAGCAAUAUUACGUUCA , thanks.
Reply: -3.21

Ask: Also need GGACAGCAAUAUUACGAGUC , thanks.
Reply: -4.31

Ask: Also need GCGUAGCAAUAUUACGACGA , thanks.
Reply: -0.712

Ask: Also need GAACAGCAAUAUUACGAGGG , thanks.
Reply: -3.29

Ask: Also need UCUUAGCAAUAUUACGCACG , thanks.
Reply: -1.56

Ask: Also need CGUCAGCAAUAUUACGGCAA , thanks.
Reply: -1.75

Ask: Also need AAAGAGCAAUAUUACGGGUG , thanks.
Reply: -3.95

---

In this section we review reported self-splicing fitness (ln) values for a set of sequences.
# PROTOCOL_TEXT: self-splicing fitness, log relative to wild type (ln ratio); higher = more splicing; Tetrahymena group I intron in knt gene, E. coli kanamycin selection, DiMSum; sequences stand for … in CUCUCU…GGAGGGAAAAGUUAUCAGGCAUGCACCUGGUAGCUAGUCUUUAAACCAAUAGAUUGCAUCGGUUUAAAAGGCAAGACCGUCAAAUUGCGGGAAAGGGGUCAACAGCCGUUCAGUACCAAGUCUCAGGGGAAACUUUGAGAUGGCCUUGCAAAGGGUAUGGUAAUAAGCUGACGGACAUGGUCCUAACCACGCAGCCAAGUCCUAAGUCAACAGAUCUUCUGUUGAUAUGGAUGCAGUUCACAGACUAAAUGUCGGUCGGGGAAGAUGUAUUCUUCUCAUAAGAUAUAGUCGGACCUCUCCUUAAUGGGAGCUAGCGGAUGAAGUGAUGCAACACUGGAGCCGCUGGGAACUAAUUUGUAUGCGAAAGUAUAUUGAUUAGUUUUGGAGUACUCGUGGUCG
# TEST_PARAMETERS: 30 °C
The answer should be a number; do not append a unit.

CGGCAGCAAUAUUACGUUUU -3.75
CAAGAGCAAUAUUACGUAUU -3.55
CCGCAGCAAUAUUACGCCGG -3.15
AUUCAGCAAUAUUACGAGGU -3.61
CCUUAGCAAUAUUACGACCG 0.294
GAUGAGCAAUAUUACGCUGG -2.08
CGAAAGCAAUAUUACGGACA -0.806
GCAGAGCAAUAUUACGCACG -4.51
UCGAAGCAAUAUUACGAUGG -0.763
ACGCAGCAAUAUUACGGAAC -3.67

Lab note: next sequence to report on.
Ask: What value of self-splicing fitness (ln) has been reported for the following sequence? UUCAAGCAAUAUUACGACGC
Reply: -1.27

Origin of the recorded values: the supplement of paper PMC7877785
